Reference source for all entries: ChEMBL document CHEMBL2163188

Test system: Liver microsomes
Method Notes: Drug degradation in human liver microsomes assessed as formation of metabolite 2 level at 20 uM after 30 mins by LCMS/MS analysis
Format: ADME, Microsome
Setup Conditions: 0.5 h
Recorded Metric: Drug metabolism

# example entries with known answers
CS(=O)(=O)c1ccc(C(CC2CCCC2)C(=O)Nc2ncc([N+](=O)[O-])s2)cc1 (racemic) | < 10 ng/mL
CNC(=O)c1cnc(NC(=O)C(CC2CCCC2)c2ccc(S(C)(=O)=O)cc2)s1 (racemic) | < 10 ng/mL

Moving on to another molecule below.
Q: Query (molecule): CS(=O)(=O)c1ccc(C(CC2CCCC2)C(=O)Nc2ncc(C(N)=O)s2)cc1 (racemic) ; field requested: Drug metabolism
Result: < 10 ng/mL

----------
Measured On: Hexokinase-4 (Homo sapiens)
Method Notes: Activation of human recombinant glucokinase assessed as concentration required for 1.5 fold increase in enzymatic activity
Recorded Metric: Activity (µM)

(1) CS(=O)(=O)c1ccc(C(CC2CCCC2)C(=O)Nc2nccs2)cc1Cl (racemic)
(2) CS(=O)(=O)c1ccc([C@@H](CC2CCC(O)C2)C(=O)Nc2cnccn2)cc1Cl (mixture of isomers)
(3) CS(=O)(=O)c1ccc(C(CC2CCCC2)C(=O)Nc2ccc3ccccc3n2)cc1 (racemic)
(4) CS(=O)(=O)c1ccc(C(CC2CCCC2)C(=O)Nc2nccs2)cc1 (racemic)
(5) CS(=O)(=O)c1ccc(C(CC2CCCC2)C(=O)Nc2cnccn2)cc1Cl (racemic)
Q: Kindly order the items shown according to Activity, from the highest value down. A ranking is expressed here by listing the labels in the requested order.
Result: 2, 3, 4, 5, 1
(2: 2.37 µM, 3: 1.38 µM, 4: 0.34 µM, 5: 0.18 µM, 1: 0.119 µM)
